# maps each entry to its half-life
# experiment summary: Half life period in mouse serum
# Format: ADME, organism-based

Query: What does the record list as half-life for `CN(C)CCCOc1ccc(NC(=O)COc2ccc(Cl)cc2C(=O)c2ccccc2)cc1` ?
Reply: < 15 min

Query: Entry `O=C(COc1ccc(Cl)cc1C(=O)c1ccccc1)Nc1ccccc1` please
Reply: < 15 min

Query: Entry `O=C(c1ccccc1)c1cc(Cl)ccc1OCc1nc2ccccc2[nH]1` please
Reply: > 360 min

Query: Entry `O=C(COc1ccc(Cl)cc1C(=O)c1ccccc1)c1cc2ccccc2[nH]1` please
Reply: < 15 min

###

# Test system: C8166
# experiment summary: Inhibitory activity against syncytia formation in infected C8166 cells
# Assay type: functional, cell-based
# assay conditions: Homo sapiens
measured property: IC50 (mg/L)
The figure you give is taken to be in mg/L; do not add the unit.

# count of solved cases: 3
structure_smiles=Cc1ccccc1CNC(=O)COc1ccc(Cl)cc1C(=O)c1ccccc1 tested_on=C8166 meas_value=0.05
structure_smiles=O=C(COc1ccc(Cl)cc1C(=O)c1ccccc1)Nc1ccccc1 tested_on=C8166 meas_value=0.0002
structure_smiles=O=C(c1ccccc1)c1cc(Cl)ccc1OCc1nc2ccccc2[nH]1 tested_on=C8166 meas_value=0.052

Query: Form field - read-out: IC50; system: C8166; submitted item: `O=C(c1ccccc1)c1cc(Cl)ccc1OCC(=O)N1CCc2ccccc2C1`
Reply: 0.011

Query: Entry `CN(C)CCCOc1ccc(NC(=O)COc2ccc(Cl)cc2C(=O)c2ccccc2)cc1` please
Reply: 0.0009

Query: Entry `CCN(CC)CCOc1ccc(NC(=O)COc2ccccc2C(=O)c2ccccc2)cc1` please
Reply: 0.005

Query: Entry `CCN(CC)CCOc1ccc(NC(=O)COc2ccccc2C(=O)c2ccc(OC)cc2)cc1` please
Reply: 0.34

Query: Entry `CCN(CC)CCOc1ccc(NC(=O)COc2ccccc2C(=O)c2ccc(F)cc2)cc1` please
Reply: 0.016

###

# tested on: Human immunodeficiency virus type 1 reverse transcriptase (Human immunodeficiency virus 1)
# experiment summary: Inhibitory activity against HIV-1 reverse transcriptase
measured property: IC50

# count of solved cases: 2
compound="O=C(COc1ccc(Cl)cc1C(O)c1ccccc1)Nc1ccccc1 (stereo unspecified)" meas_value="> 272 µM"
compound=O=C(c1ccccc1)c1cc(Cl)ccc1OC/C=C/c1ccccc1 meas_value="> 287 µM"

Query: What does the record list as IC50 for `Cc1cc(OCCCN(C)C)ccc1NC(=O)c1ccc(Cl)cc1C(=O)c1ccccc1` ?
Reply: > 222 µM

Query: Entry `O=C(COc1ccc(-n2ccnc2)cc1C(=O)c1ccccc1)Nc1ccccc1` please
Reply: > 25.2 µM

Query: Entry `O=C(COc1ccc(Cl)c(Cl)c1C(=O)c1ccccc1)Nc1ccccc1` please
Reply: > 250 µM

Query: Entry `O=C(COc1c(Cl)cc(Cl)cc1C(=O)c1ccccc1)Nc1ccccc1` please
Reply: > 250 µM

Query: Entry `Cc1cc(OCCCN(C)C)cc(C)c1NC(=O)Cc1ccc(Cl)cc1C(=O)c1ccccc1` please
Reply: > 104 µM

###

# System: C8166
# experiment summary: Inhibitory activity against P24 antigen formation in infected C8166 cells
# Assay type: functional, cell-based
# assay conditions: Homo sapiens
# maps each entry to its log10(IC50)
Give log10 of IC50, with IC50 taken in ng/mL.

# count of solved cases: 3
structure_smiles=CCN(CC)CCOc1ccc(NC(=O)COc2cc(OC)ccc2C(=O)c2ccccc2)cc1 tested_on=C8166 measured_property=log10(IC50) meas_value=1.11
structure_smiles=O=C(c1ccccc1)c1cc(Cl)ccc1OCC(=O)N1CCc2ccccc2C1 tested_on=C8166 measured_property=log10(IC50) meas_value=1.20
structure_smiles=O=C(COc1ccc(Cl)cc1C(=O)c1ccccc1)Nc1ccccc1 tested_on=C8166 measured_property=log10(IC50) meas_value=0.08

Query: Form field - read-out: log10(IC50); system: C8166; submitted item: `CCN(CC)CCOc1ccc(NC(=O)COc2ccccc2C(=O)c2ccccc2)cc1`
Reply: 0.18

Query: Entry `Cc1cc(OCCCN(C)C)ccc1NC(=O)Cc1ccc(Cl)cc1C(=O)c1ccccc1` please
Reply: 0.46

###

# maps each entry to its half-life
# experiment summary: Half life period in mouse S9 liver preparation
# Type: ADME
# assay conditions: liver S9 fraction

# count of solved cases: 3
structure_smiles=O=C(COc1ccc(Cl)cc1C(=O)c1ccccc1)Nc1ccccc1 measured_property=half-life meas_value="< 0.25 h"
structure_smiles=CN(C)CCCOc1ccc(NC(=O)COc2ccc(Cl)cc2C(=O)c2ccccc2)cc1 measured_property=half-life meas_value="> 2 h"
structure_smiles=O=C(c1ccccc1)c1cc(Cl)ccc1OCc1nc2ccccc2[nH]1 measured_property=half-life meas_value="> 6 h"

Query: What does the record list as half-life for `Cc1ccccc1CNC(=O)COc1ccc(Cl)cc1C(=O)c1ccccc1` ?
Reply: > 6 h

###

# experiment summary: Toxicity against uninfected MT-4 cells
# Type: cell-based, MT4
# assay conditions: human
# maps each entry to its IC50

Query: What does the record list as IC50 for `O=C(c1ccccc1)c1cc(Cl)ccc1OCc1nc2ccccc2[nH]1` ?
Reply: > 0.5 µg/mL

###

# tested on: Human immunodeficiency virus type 1 reverse transcriptase (Human immunodeficiency virus 1, UniProt Q72547)
# maps each entry to its pIC50
Lab note — pIC50 values are minus log10 of concentrations in M.

structure_smiles=CCN(CC)CCOc1ccc(NC(=O)COc2cc(OC)ccc2C(=O)c2ccccc2)cc1 meas_value=4.88
structure_smiles=O=C(c1ccccc1)c1cc(Cl)ccc1OCc1nc2ccccc2[nH]1 meas_value=5.85

Next:
Query: What does the record list as pIC50 for `CCN(CC)CCOc1ccc(NC(=O)COc2ccccc2C(=O)c2ccccc2)cc1` ?
Reply: 5.29

###

# System: C8166
# experiment summary: Inhibitory activity against P24 antigen formation in infected C8166 cells
# Type: functional, cell-based
# assay conditions: Homo sapiens
measured property: IC50

structure_smiles=O=C(COc1ccc(Cl)cc1C(=O)c1ccccc1)c1cc2ccccc2[nH]1 meas_value="> 5 mg/L"
structure_smiles=CN(C)CCCOc1ccc(NC(=O)COc2ccc(Cl)cc2C(=O)c2ccccc2)cc1 meas_value="< 0.0005 mg/L"

Next:
Query: What does the record list as IC50 for `CCN(CC)CCOc1ccc(NC(=O)COc2ccccc2C(=O)c2ccc(F)cc2)cc1` ?
Reply: < 0.05 mg/L

###

# experiment summary: Toxicity against uninfected MT-4 cells
# Type: cell-based, MT4
# assay conditions: human
measured property: IC50 (µg/mL)
The figure you give is taken to be in µg/mL; do not add the unit.

# count of solved cases: 2
structure_smiles=O=C(COc1ccc(Cl)cc1C(=O)c1ccccc1)c1cc2ccccc2[nH]1 measured_property=IC50 meas_value=10
structure_smiles=O=C(COc1ccc(Cl)cc1C(=O)c1cccnc1)Nc1ccccc1 measured_property=IC50 meas_value=10

Query: What does the record list as IC50 for `O=C(COc1cc(Cl)c(Cl)cc1C(=O)c1ccccc1)Nc1ccccc1` ?
Reply: 100

###

# maps each entry to its IC50
# experiment summary: Toxicity against uninfected MT-4 cells
# Type: cell-based, MT4
# assay conditions: human

structure_smiles=O=C(COc1ccc(Cl)cc1C(=O)C1CCCC1)Nc1ccccc1 measured_property=IC50 meas_value="> 100 µg/mL"
structure_smiles=Cc1cc(OCCCN(C)C)ccc1NC(=O)Cc1ccc(Cl)cc1C(=O)c1ccccc1 measured_property=IC50 meas_value="> 0.5 µg/mL"
structure_smiles=CN(C)CCCOc1ccc(NC(=O)COc2ccc(Cl)cc2C(=O)c2ccccc2)cc1 measured_property=IC50 meas_value="> 0.5 µg/mL"

Query: What does the record list as IC50 for `CCN(CC)CCOc1ccc(NC(=O)COc2ccccc2C(=O)c2ccccc2)cc1` ?
Reply: > 0.5 µg/mL
